Data origin: patent US20260042850A1

# tested.on: T1, human C-MET His tagged, monomeric (human, UniProt P08581 25-932)
# T1 construct: also called monomeric human C-MET; biotinylated human C-MET-His
# assay.notes: SPR Biacore, IgG captured, monomeric C-MET-His analyte
reported.metric: Kd (pM)
Please state the figure in pM; there is no need to write the unit.

Prompt: For the binder 04F09 (antibody, IgG4, V domains shown) VH: QVQLVQSGAEVKKPGASVKVSCKASGYIFTSYSMHWVRQAPGQGLEWMGWINPSNGLANYAQKFQGRVTMTRDTSTSTVYMELSSLRSEDTAVYYCARQEITTEFDIWGQGTLVTVSS VL: EIVLTQSPGTLSLSPGERATLSCRASQSVESYAQSYLHWYQQKPGQAPRLLIYRGSTRESGIPDRFSGSGSGTDFTLTISRLEPEDFAVYYCQQSKSDPLTFGGGTKVEIK , give its measured Kd value.
Completion: 130

Prompt: For the binder 07C10 (antibody, IgG4, V domains shown) VH: QVQLVQSGAEVKKPGASVKVSCKASGYIFTAYSMHWVRQAPGQGLEWMGIIKPSNGSTNYAQKFQGRVTMTRDTSTSTVYMELSSLRSEDTAVYYCARAEITTEFDYWGQGTLVTVSS VL: EIVLTQSPGTLSLSPGERATLSCRASQSVESYAQSYLHWYQQKPGQAPRLLIYRGSTRESGIPDRFSGSGSGTDFTLTISRLEPEDFAVYYCQQSKEEPLTFGGGTKVEIK , give its measured Kd value.
Completion: 780

Prompt: For the binder 08B12 (antibody, IgG4, V domains shown) VH: QVQLVQSGAEVKKPGASVKVSCKASGYIFTAYSMHWVRQAPGQGLEWMGWIKPNNGSTNYAQKFQGRVTMTRDTSTSTVYMELSSLRSEDTAVYYCARTEITTEFDYWGQGTLVTVSS VL: EIVLTQSPGTLSLSPGERATLSCRASQSVDSYANSYLHWYQQKPGQAPRLLIYRGSTRETGIPDRFSGSGSGTDFTLTISRLEPEDFAVYYCQQSKSDPLTFGGGTKVEIK , give its measured Kd value.
Completion: 8400
